Target: mouse TAAR1 (Mus musculus (Mouse), UniProt Q923Y8)
Sequence (Q923Y8 whole entry): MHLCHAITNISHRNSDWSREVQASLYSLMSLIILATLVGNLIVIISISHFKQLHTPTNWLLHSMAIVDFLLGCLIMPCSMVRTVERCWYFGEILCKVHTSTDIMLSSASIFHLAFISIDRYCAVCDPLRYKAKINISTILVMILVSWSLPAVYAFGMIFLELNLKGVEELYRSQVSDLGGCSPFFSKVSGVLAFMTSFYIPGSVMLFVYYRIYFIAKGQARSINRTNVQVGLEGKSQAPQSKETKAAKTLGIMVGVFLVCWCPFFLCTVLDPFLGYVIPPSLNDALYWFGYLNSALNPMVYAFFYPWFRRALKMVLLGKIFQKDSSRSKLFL
Experiment: Radioligand binding assay on mouse TAAR1
Conditions: mouse TAAR1, HEK-293 membranes; first value of the pair (before the slash); read-out: Ki (μM) mouse/rat
Note to self: Ki under 0.003 µM means T, ties and anything higher get F.

compound | experimental_system | label_value
N#Cc1ccc(NC(=O)Nc2ccc([C@H]3CNCCO3)cc2Br)cn1 | mouse TAAR1 (Mus musculus (Mouse), UniProt Q923Y8) | F
O=C(Nc1ccc([C@H]2CNCCO2)cc1F)c1cnn(-c2ccc(F)cc2)c1 | mouse TAAR1 (Mus musculus (Mouse), UniProt Q923Y8) | T
O=C(Nc1ccc([C@H]2CNCCO2)cc1F)c1cn(-c2ccc(OC(F)F)cc2)nn1 | mouse TAAR1 (Mus musculus (Mouse), UniProt Q923Y8) | T

Could you now look at the following compound, please?
### Prompt # check: Ki < 0.003 µM for `COc1cc(C(=O)Nc2ccc([C@@H]3CNCCO3)cc2F)cc(Cl)n1`
### Response F
